# assay: Aqueous solubility of compound by HPLC analysis
# Type: physicochemical
# condition parameters: water
measured metric: solubility

Worked examples, 3 compounds total:
>>> endpoint_result("Cc1nc(C)c(/C=C/C(=O)N2CCC=C(Cl)C2=O)nc1C")
"22.8 µg/mL"
>>> endpoint_result("Cc1nc(C)c(/C=C/C(=O)N2CCC=CC2=O)nc1C")
"42.6 µg/mL"
>>> endpoint_result("Cc1nc(C)c(/C=C/C(=O)N2CCC=C(Br)C2=O)nc1C")
"20.2 µg/mL"

Lookup: Supply recorded solubility for Cc1nc(C)c(/C=C/C(=O)N2CCC=C(I)C2=O)nc1C here.
Found: 14.5 µg/mL
